Items are presented alongside their recorded Kd.
target: wildtype feline IL-31 (Feline_IL31_wildtype) (feline); experiment: SPR (Biacore), immobilised IL-31, 1:1 fit
Sequence (chain, as listed by the source limits assumed, form in doubt): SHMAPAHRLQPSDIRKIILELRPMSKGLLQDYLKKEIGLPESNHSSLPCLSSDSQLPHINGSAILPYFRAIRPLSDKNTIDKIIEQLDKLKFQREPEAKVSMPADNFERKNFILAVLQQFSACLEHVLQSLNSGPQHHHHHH
Just the number please, in nM, no unit attached.

stdin: Consider the binder Feline 11E12 1.1 FW2 (antibody, V domains shown) VH: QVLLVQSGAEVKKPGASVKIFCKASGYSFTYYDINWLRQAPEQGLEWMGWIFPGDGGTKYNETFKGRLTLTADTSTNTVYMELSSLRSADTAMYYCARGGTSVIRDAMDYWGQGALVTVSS VL: EIQMTQSPSSLSASPGDRVTITCRASESVDNYGISFMHWYQQKPGQPPKLLIYRASNLESGVPSRFSGSGSGTDFTLTISSLEPEDAATYYCQQSNKDPLTFGQGT and give its measured Kd.
stdout: 0.75

stdin: Consider the binder Feline 15H05 3.2 (antibody, V domains shown) VH: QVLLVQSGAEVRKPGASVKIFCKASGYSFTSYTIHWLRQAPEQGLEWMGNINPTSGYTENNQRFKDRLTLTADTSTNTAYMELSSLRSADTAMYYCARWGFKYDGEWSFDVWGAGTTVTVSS VL: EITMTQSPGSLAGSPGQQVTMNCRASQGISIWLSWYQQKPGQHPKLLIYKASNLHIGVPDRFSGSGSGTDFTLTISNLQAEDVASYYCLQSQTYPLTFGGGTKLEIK and give its measured Kd.
stdout: 12.6

stdin: Consider the binder mouse anti IL-31 antibody 15H05 (antibody, V domains shown) VH: QVQLQQSAAELARPGASVKMSCKTSGYTFTSYTIHWIKQRPGQGLEWIGNINPTSGYTENNQRFKDKTTLTVDRSSNTAYLQLHSLTSEDSAVYFCARWGFKYDGEWSFDVWGAGTTVTVSS VL: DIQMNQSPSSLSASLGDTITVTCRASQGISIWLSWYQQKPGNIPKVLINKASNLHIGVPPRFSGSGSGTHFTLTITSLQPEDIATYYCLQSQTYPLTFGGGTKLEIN and give its measured Kd.
stdout: 0.348
